Values compiled from patent US4968698A.

This listing pairs compounds with measured IC50.
- System: Trichomonas vaginalis
- EXPERIMENTAL PROTOCOL: In vitro activity against T. vaginalis (IC50 determination)
- Assay type: cell-based
- EXPERIMENTAL SETUP: 24 hr, 37° C., aerobic, Modified Diamonds Medium, 1×10^4 trichomonads cm^-3, read-out: IC50 24 hr
Returns: string containing the numeric result and its unit.

# annotated cases, reported IC50 shown
O=[N+]([O-])c1ccc(/C=C/C2=NCCc3cc(OCc4ccccc4)ccc32)o1 : 0.4 µg/mL
Clc1ccc(C=CC2=NCCc3cc(OCc4ccc(Cl)cc4Cl)ccc32)c(Cl)c1 : 0.5 µg/mL
C/C=C/C=C/C1=NCCc2cc(OCCCC)ccc21 : 1.5 µg/mL
CC(C)(C)c1ccc(COc2ccc3c(c2)CCN=C3C=Cc2ccccc2)cc1 : 2.5 µg/mL

Attention now turns to another entry.
Exercise: Recorded IC50 of "CCCCOc1ccc2c(c1)CCN=C2/C=C/C1CCCCC1" , please.
Solution: 1.3 µg/mL

====

- System: Trichomonas vaginalis
- EXPERIMENTAL PROTOCOL: In vitro activity against T. vaginalis (IC50 determination)
- Type: cell-based
- EXPERIMENTAL SETUP: 48 hr, 37° C., aerobic, Modified Diamonds Medium, 1×10^4 trichomonads cm^-3, read-out: IC50 48 hr
This listing pairs compounds with measured IC50.
Enter your answer as a number in µg/mL; do not include the unit.

# annotated cases, reported IC50 shown
Clc1ccc(C=CC2=NCCc3cc(OCc4ccccc4)c(OCc4ccccc4)cc32)c(Cl)c1 : 3.2
CCCCOc1ccc2c(c1)CCN=C2C=Cc1ccc(C#N)cc1 : 2.5

Exercise: Recorded IC50 of CCCOc1cc2c(cc1OCCC)C(C=Cc1ccc(Cl)cc1Cl)=NC(C)C2 (stereo not drawn) , please.
Solution: 1.1

====

- Tested on: Trichomonas vaginalis
- EXPERIMENTAL PROTOCOL: In vitro activity against T. vaginalis (IC50 determination)
- Format: cell-based
- EXPERIMENTAL SETUP: 24 hr, 37° C., aerobic, Modified Diamonds Medium, 1×10^4 trichomonads cm^-3, read-out: IC50 24 hr
MEASURED QUANTITY: IC50 (µg/mL)
Enter your answer as a number in µg/mL; do not include the unit.

O=[N+]([O-])c1ccc(C=CC2=NCCc3cc(Oc4ccc(Cl)cc4)ccc32)cc1 [Example 68] : 5
C(=Cc1ccccc1)C1=NCCc2c1ccc(OCc1ccccc1)c2OCc1ccccc1 [Example 171] : 0.8
CCCCOc1ccc2c(c1)CCN=C2C=Cc1ccc([N+](=O)[O-])cc1 [Example 19] : 10
CCCCOc1cc2c(cc1OCCCC)C(C=Cc1ccc(Cl)cc1)=NCC2 [Example 157] : 1.8
C/C=C/C=C/C1=NCCc2cc(OCCCCCC)ccc21 [Example 129] : 2.9

Exercise: Recorded IC50 of CCCc1c2c(cc(OC)c1OCc1ccccc1)C(C=Cc1ccc(Cl)cc1)=NCC2 [Example 176] , please.
Solution: 1.7

Exercise: Input CCCOc1ccc2c(c1)CCN=C2/C=C/C1CCCCC1 [Example 6]
Solution: 0.4

Exercise: Input CCCCOc1ccc2c(c1)CCN=C2/C(C)=C/c1ccccc1 [Example 153]
Solution: 0.3

Exercise: Input CCCCOc1ccc2c(c1)CCN=C2C=Cc1ccccc1Cl [Example 12]
Solution: 1.2

Exercise: Input CCCCCCOc1ccc2c(c1)CCN=C2C=Cc1ccc(C#N)cc1 [Example 75]
Solution: 0.3

Exercise: Input C=CCCOc1ccc2c(c1)CCN=C2C=Cc1ccc(Cl)cc1Cl [Example 46]
Solution: 1.1

Exercise: Input CC=CC1=NCCc2cc(OCCC)ccc21 [Example 137]
Solution: 1

Exercise: Input CCCOc1cc2c(cc1OCCC)C(C=Cc1ccc(Cl)cc1Cl)=NCC2 [Example 155]
Solution: 1.2

Exercise: Input CCCCOc1ccc2c(c1)CCN=C2/C=C/c1c(F)c(F)c(F)c(F)c1F [Example 23]
Solution: 1.1

Exercise: Input CCCCCCOc1cc2c(cc1OCCCCCC)C(C=Cc1ccc(Cl)cc1)=NCC2 [Example 165]
Solution: 9

Exercise: Input C(=CC1CCCCC1)C1=NCCc2cc(OCc3ccccc3)ccc21 [Example 2]
Solution: 1

Exercise: Input CCCCOc1ccc2c(c1)CCN=C2C=Cc1ccccc1 [Example 3]
Solution: 3.7

Exercise: Input COc1ccc(OCc2ccccc2)c2c1C(C=Cc1ccc(C#N)cc1)=NCC2 [Example 175]
Solution: 0.4

Exercise: Input COc1ccc(C=CC2=NCCc3cc(OCc4ccccc4)ccc32)c(OC)c1 [Example 56]
Solution: 8

====

- Tested on: Trichomonas vaginalis
- EXPERIMENTAL PROTOCOL: In vitro activity against T. vaginalis (IC50 determination)
- Assay type: cell-based
- EXPERIMENTAL SETUP: 24 hr, 37° C., aerobic, Modified Diamonds Medium, 1×10^4 trichomonads cm^-3, read-out: IC50 24 hr
This listing pairs molecules with measured IC50.
Enter your answer as a number in µg/mL; do not include the unit.

# annotated cases, reported IC50 shown
C(/C=C/c1ccccc1)=C\C1=NCCc2cc(OCc3ccccc3)ccc21 [Example 126] : 1.5
CC(C)(C)c1ccc(C=CC2=NCCc3cc(OCc4ccccc4)ccc32)cc1 [Example 60] : 5.6
Clc1ccc(C=CC2=NCCc3cc(Oc4ccccc4)ccc32)cc1 [Example 65] : 1.2

Exercise: Recorded IC50 of CCCCOc1ccc2c(c1)CCN=C2C=Cc1ccc(C(C)(C)C)cc1 [Example 15] , please.
Solution: 1.5

Exercise: Input C(=C\c1ccsc1)/C1=NCCc2cc(OCc3ccccc3)ccc21 [Example 106]
Solution: 1.4

Exercise: Input CCCc1c(O)c(OC)cc2c1CCN=C2C=Cc1ccccc1Cl [Example 180]
Solution: 1

Exercise: Input Clc1ccc(C=CC2=NCCc3cc(OCc4ccccc4)c(OCc4ccccc4)cc32)c(Cl)c1 [Example 170]
Solution: 1

Exercise: Input CCCCOc1ccc2c(c1)CCN=C2/C(Br)=C/c1ccccc1 [Example 147]
Solution: 0.2

Exercise: Input C(=Cc1ccc(-c2ccccc2)cc1)C1=NCCc2cc(OCc3ccccc3)ccc21 [Example 82]
Solution: 0.6

====

- Test system: Trichomonas vaginalis
- EXPERIMENTAL PROTOCOL: In vitro activity against T. vaginalis (IC50 determination)
- Format: cell-based
- EXPERIMENTAL SETUP: 48 hr, 37° C., aerobic, Modified Diamonds Medium, 1×10^4 trichomonads cm^-3, read-out: IC50 48 hr
MEASURED QUANTITY: log10 of IC50 (log10 of the value in mg/L)
Transform log10 | Measure IC50 | Unit mg/L

# annotated cases, reported log10 of IC50 shown
Clc1ccc(C=CC2=NCCc3cc(Oc4ccccc4)ccc32)cc1 : 0.20
CCCCOc1ccc2c(c1)CCN=C2/C(Cl)=C/c1ccccc1 : -0.70
CCCOc1ccc2c(c1)CCN=C2/C=C/c1ccc([N+](=O)[O-])o1 : 0.08
CC(C)(C)CCOc1ccc2c(c1)CCN=C2C=Cc1ccc(Cl)cc1Cl : 0.00

Exercise: Recorded log10 of IC50 of "CC(C)(C)c1ccc(COc2ccc3c(c2)CCN=C3C=Cc2ccccc2)cc1" , please.
Solution: 0.38

Exercise: Input "C/C=C/C=C/C1=NCCc2cc(OCCCCCC)ccc21"
Solution: 0.49

Exercise: Input "CCCCOc1ccc2c(c1)CCN=C2/C(C)=C/c1ccccc1"
Solution: -0.30

Exercise: Input "C(=Cc1ccccc1)C1=NCCc2cc(OCc3ccccc3)ccc21"
Solution: 0.74

Exercise: Input "CCCc1c2c(cc(OC)c1OCc1ccccc1)C(C=Cc1ccc(Cl)cc1)=NCC2"
Solution: 0.49

====

This listing pairs molecules with measured IC50.
- System: Trichomonas vaginalis
- EXPERIMENTAL PROTOCOL: In vitro activity against T. vaginalis (IC50 determination)
- Assay type: cell-based
- EXPERIMENTAL SETUP: 48 hr, 37° C., aerobic, Modified Diamonds Medium, 1×10^4 trichomonads cm^-3, read-out: IC50 48 hr

# annotated cases, reported IC50 shown
CCCCCCOc1cc2c(cc1OCCCCCC)C(C=Cc1ccc(Cl)cc1)=NCC2 [Example 165] : 10 µg/mL
C(=Cc1ccc(-c2ccccc2)cc1)C1=NCCc2cc(OCc3ccccc3)ccc21 [Example 82] : 2 µg/mL
C(=C\c1cccs1)/C1=NCCc2cc(OCc3ccccc3)ccc21 [Example 104] : 7.3 µg/mL

Exercise: Recorded IC50 of CCCCOc1ccc2c(c1)CCN=C2C=Cc1ccc(-c2ccccc2)cc1 [Example 24] , please.
Solution: 128 µg/mL

Exercise: Input CC(C)(C)c1ccc(Oc2ccc3c(c2)CCN=C3C=Cc2ccccc2)cc1 [Example 73]
Solution: 1.1 µg/mL

Exercise: Input C/C=C/C=C/C1=NCCc2cc(OCc3ccccc3)ccc21 [Example 130]
Solution: 5.4 µg/mL

Exercise: Input CCCc1c(O)c(OC)cc2c1CCN=C2C=Cc1ccccc1Cl [Example 180]
Solution: 1.6 µg/mL

Exercise: Input CCCCOc1ccc2c(c1)CCN=C2C=Cc1ccc([N+](=O)[O-])cc1 [Example 19]
Solution: 13.5 µg/mL

Exercise: Input C(=C\c1ccsc1)/C1=NCCc2cc(OCc3ccccc3)ccc21 [Example 106]
Solution: 3.7 µg/mL

Exercise: Input Clc1ccc(C=CC2=NCCc3cc(OCc4ccc(Cl)cc4Cl)ccc32)c(Cl)c1 [Example 92]
Solution: 1 µg/mL

Exercise: Input C=CCCOc1ccc2c(c1)CCN=C2C=Cc1ccc(Cl)cc1 [Example 45]
Solution: 2.8 µg/mL

Exercise: Input Clc1ccc(COc2ccc3c(c2)CCN=C3C=Cc2ccc(Cl)cc2Cl)cc1 [Example 85]
Solution: 1.5 µg/mL

Exercise: Input CCCCOc1ccc2c(c1)CCN=C2/C(Br)=C/c1ccccc1 [Example 147]
Solution: 0.3 µg/mL

Exercise: Input C(=Cc1ccccc1)C1=NCCc2c1ccc(OCc1ccccc1)c2OCc1ccccc1 [Example 171]
Solution: 1.8 µg/mL

Exercise: Input Cl/C(=C\c1ccccc1)C1=NCCc2cc(OCc3ccccc3)ccc21 [Example 151]
Solution: 0.3 µg/mL

Exercise: Input C(=CC1CCCCC1)C1=NCCc2cc(OCc3ccccc3)ccc21 [Example 2]
Solution: 1.8 µg/mL
